Cited source for all entries: the domain aggregation screens of Martell et al. (2025)

Experiment notes: soluble fraction after stress (log2 fold change); higher = more stays soluble; pooled small domains, quantitative proteomics
Cond: stress: 50 degC

{"Sequence text": "HMTESFEFTMNDLVQNNLIMGSGAKERRIAVGEALGIGYTNAKQFLSRLNHYGITRKEFDDEIEKVNQN", "soluble fraction (log2)": -0.158}
{"Sequence text": "HMVSVLDHIVGIGAKRRQSLWNHFGTIDKIKAASIDELLKAPGMNRPSAEAVYYFFEAQRQLRGK", "soluble fraction (log2)": -0.744}
{"Sequence text": "HMKDYQGNILIQSEGDRIDKFLFKYFNSFSRTKIKNHIINGNILVNDKNTIPAYVLKINDKISYDLSTSVK", "soluble fraction (log2)": -1.04}
{"Sequence text": "HMDPTEPLFVGVVTAEPYLNIREYPTTQSKDLGDLFPGMHVNVYEIVPNWYRIDDGWVASAWVKRDWGGG", "soluble fraction (log2)": -1.2}
{"Sequence text": "HMSERVVVPDLTGKDLVAAQSELREISLAGREEGPGDKVRRQFPVAGVKVPKDTVVILYTED", "soluble fraction (log2)": 0.125}
{"Sequence text": "HMSDEAGKVLQLLRENGGYLPYNDRSDPEDIYAFFSMSKKTFKMTAGNLYKQKKIIFTNTGIKLTE", "soluble fraction (log2)": -0.856}
{"Sequence text": "HMYIDANTALLAKRIQAKNGFLPLSDKSTAEEIYAEFGISKKAFKKALGALYKERLVRIGDEGVVWV", "soluble fraction (log2)": -1.79}
{"Sequence text": "HMGKKYVPGMAVKLSAVPLYAASTSKVPSTHVTGTYYLWDDEVVRGRLRITNLKSRVGISGQVTGWIDKDR", "soluble fraction (log2)": -1.23}
{"Sequence text": "HMGPASTGAHQLGLKPGDEVTHRAWGEGVVTSTTGEGDRAEAVVDFDAVGEKRLLLAWAPLER", "soluble fraction (log2)": 0.00864}
{"Sequence text": "HMTSKTLSAVEGEGLRLDKFLSNQLPELSRTKIQKMINDGLVFVNNTEAKASLILDGSEFIAYTVPD", "soluble fraction (log2)": -0.0541}
{"Sequence text": "HMYSIKEFSFEVTTPGQRLDLFLSEELIGQTRSSIQNLILKKYVTVNGQVSKASYKVKTGEFISVKIPV", "soluble fraction (log2)": -3.16}
{"Sequence text": "HMEGDAFAFTGDIQKDLLSITAVHPMRREAVDALIAKAGASWAIVEKLLAHGELTEAKHDGHLFYLRKF", "soluble fraction (log2)": -0.81}
{"Sequence text": "HMGKDIYLTSGWVEKFDELNEFSNSVDNYDRLNQFGMYENAIIGDTGVIKITDEMIFDLYEKIQVPVEAGP", "soluble fraction (log2)": -0.185}
{"Sequence text": "HMFDFNNLSSLSDVELSVYRFVVNNPEKVAYMRVRDIAQKTHVANSSVMRFVHKIGFASFPEFKAYLKNIN", "soluble fraction (log2)": -1.03}
{"Sequence text": "HMAEPLMTQIVEIEYADAEGLRENLEQFLTRLDEKTLLGSVLVDRHTNSLIIQAVRSDLERMLPLIETLDR", "soluble fraction (log2)": -0.731}
{"Sequence text": "HMDVPTSSITEVKKSPMDVFAQARKAETGVYIFNREKIAGVMLTKEQYEALVEELNTLRDTL", "soluble fraction (log2)": -0.438}
{"Sequence text": "HMNDVHELPYSSFIEMVERGHVISVTVKHINIEFESTKNENYRTIAPQAMTPPYLELLLKNKDSVKVTFLP", "soluble fraction (log2)": -1.69}
